Would you mind telling me the reported Minimal Inhibitory Concentration E. Coli GC2203 of each entry?
System: E. Coli GC2203
test_description: Antimicrobial susceptibility testing, microbroth dilution MIC of piperacillin + inhibitor
Format: cell-based
measurement_context: piperacillin combined with constant 4 μg/ml inhibitor; Inc: 35° C. for 18 hours

Query :: Using the record for `O=C(O)C1=CS[C@@H]2/C(=C\c3cn4c(n3)sc3cc(Cl)ccc34)C(=O)N12` , state its measured Minimal Inhibitory Concentration E. Coli GC2203.
Result :: 1 µg/mL

Query :: Using the record for `O=C(O)C1=CS[C@@H]2/C(=C\c3cn4c5c(sc4n3)COCC5)C(=O)N12` , state its measured Minimal Inhibitory Concentration E. Coli GC2203.
Result :: 2 µg/mL

Query :: Using the record for `O=C(O)C1=CS[C@@H]2/C(=C\c3cn4c5c(sc4n3)CCC5)C(=O)N12` , state its measured Minimal Inhibitory Concentration E. Coli GC2203.
Result :: 2 µg/mL

Query :: Using the record for `Cn1c2ccccc2n2cc(/C=C3/C(=O)N4C(C(=O)O)=CS[C@H]34)nc12` , state its measured Minimal Inhibitory Concentration E. Coli GC2203.
Result :: 2 µg/mL
